- tested.target: Solute carrier family 2, facilitated glucose transporter member 1 (Homo sapiens)
- protocol.description: ST_JUDE_LEISH: Cytotoxicity at 2uM final concentration against transgenic Leishmania Mexicana promastigotes LmGLUT1 that are glucose transport deficient and complemented with the human glucose transporter GLUT1. Activity is measured by DNA content using SYBR green in vitro
- Format: functional
measured.endpoint: inhibition (%)
Supply the numeric figure in %, leaving out any unit text.

Record excerpt, results attached:
| compound | inhibition (%) |
| --- | --- |
| Cc1nn(-c2ccccc2)c2nc(-c3ccccc3)cc(C(=O)N3CCOCC3)c12 | 1.26 |
| CC1(C)CC(NCCCCCCCOc2ccc(OCc3ccccc3)cc2)CC(C)(C)N1 | 103 |
| COc1ccccc1C(=O)Nc1ccc(Nc2nc(C)cc(N3CCOCC3)n2)cc1 | 4.83 |
| O=C(/C=C/c1ccc(Cl)c(Cl)c1)NCCCCCN1CCCN(C(=O)Nc2ccc(C(F)(F)F)cc2)CC1 | 2.96 |
| CCN(CC)C(=S)N/N=C1/C(=O)Nc2c(C)cccc21 | 6.57 |
| CCOc1cc(C)c(C2CCN(CCCCNC(=O)c3ccc(NC(=O)c4ccc(Cl)cc4)cc3)CC2)cc1C | -0.49 |
| Cc1ccc(NC(=O)c2ccc(CN3CCCN(Cc4cccc(C#N)c4)CC3)cc2)cc1F | 4.02 |
| CC(CNC(=O)[C@H]1CNCCN1C(=O)CCCc1ccccc1)c1ccccc1 (stereo not given in full) | 0.97 |
| CC(C)c1ccc(N(CC(=O)N/N=C/c2ccc(C(F)(F)F)cc2)S(=O)(=O)c2ccc(C(F)(F)F)cc2)cc1 | 4.88 |
| CC(C)(C)c1ccc(CNC(=O)c2ccc(-c3nc4ccc(Cl)cc4[nH]3)cc2)cc1 | 1.67 |

Hello, I am looking for reported inhibition with Solute carrier family 2, facilitated glucose transporter member 1 (Homo sapiens) for COc1ccc(CN2CCC(CN3CC4(OC3=O)c3ccccc3-c3ccccc34)C2)c(O)c1 (stereo not given) . Could you help? 10.8

Report inhibition for "CCN1CCN(c2cc(C)c3cc(NC(=O)c4ccc([N+](=O)[O-])c(C)c4)ccc3n2)CC1" tested on Solute carrier family 2, facilitated glucose transporter member 1 (Homo sapiens). 3.68

Lab note: need inhibition with Solute carrier family 2, facilitated glucose transporter member 1 (Homo sapiens) for entry "COc1ccc2ncc(C)c(CCN3CCC(NCc4ccc5c(n4)NC(=O)CS5)CC3)c2c1" , please look it up. 8.73

// fetch Solute carrier family 2, facilitated glucose transporter member 1 (Homo sapiens) inhibition for "COc1ccc(C=NNc2nc(O)cc(-c3ccccc3)n2)cc1OC" 1.33

Observed inhibition on Solute carrier family 2, facilitated glucose transporter member 1 (Homo sapiens) for "COc1ccc(S(=O)(=O)N(c2cc(Br)cc3c2OCC3)S(=O)(=O)c2ccc(OC)c(N3CCN(C)CC3)c2)cc1N1CCN(C)CC1" , please. 0.39

// fetch Solute carrier family 2, facilitated glucose transporter member 1 (Homo sapiens) inhibition for "CC12CC3CC(C)(C1)CC(Nc1nc(N4CCOCC4)nc4ccccc14)(C3)C2" 2.67

Field: inhibition (Solute carrier family 2, facilitated glucose transporter member 1 (Homo sapiens)). Entry: "CCCCCCN1CCC(NCc2cccc(C(F)(F)F)c2)CC1" 9.06

Value wanted: inhibition (Solute carrier family 2, facilitated glucose transporter member 1 (Homo sapiens)) of entry "COC(=O)CCCOc1cc(Cc2cnc(N)nc2N)cc(OC)c1OC" 7.51

Give recorded inhibition with Solute carrier family 2, facilitated glucose transporter member 1 (Homo sapiens) for the following compound: "Oc1ccc(CN2CCC(NCc3cccc(C(F)(F)F)c3)CC2)cc1" 11.3

Solute carrier family 2, facilitated glucose transporter member 1 (Homo sapiens) / inhibition / CCOC(=O)C(NC(=O)Cc1ccccc1)C(C)C (stereo not given) : value? -2.58

* * *

- tested.target: Solute carrier family 2, facilitated glucose transporter member 1 (Homo sapiens) (UniProt P11166)
- Sequence (P11166 whole entry): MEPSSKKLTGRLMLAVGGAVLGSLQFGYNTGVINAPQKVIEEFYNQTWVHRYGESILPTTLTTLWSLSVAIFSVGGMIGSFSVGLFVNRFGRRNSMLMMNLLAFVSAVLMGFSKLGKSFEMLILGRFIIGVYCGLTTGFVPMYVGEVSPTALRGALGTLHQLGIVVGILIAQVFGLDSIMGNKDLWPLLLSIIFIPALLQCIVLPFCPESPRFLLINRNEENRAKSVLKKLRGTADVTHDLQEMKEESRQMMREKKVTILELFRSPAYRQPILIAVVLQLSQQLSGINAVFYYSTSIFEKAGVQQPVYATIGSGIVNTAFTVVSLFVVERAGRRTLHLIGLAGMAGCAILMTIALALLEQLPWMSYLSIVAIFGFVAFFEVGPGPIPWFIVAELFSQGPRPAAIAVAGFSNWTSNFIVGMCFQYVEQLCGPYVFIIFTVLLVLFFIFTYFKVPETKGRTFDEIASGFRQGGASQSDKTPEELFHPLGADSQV
- protocol.description: ST_JUDE_LEISH: Cytotoxicity at 2uM final concentration against transgenic Leishmania Mexicana promastigotes LmGLUT1 that are glucose transport deficient and complemented with the human glucose transporter GLUT1. Activity is measured by DNA content using SYBR green in vitro
- Type: functional
Below, each entry is listed with its recorded inhibition.
Response body: numeric value in %, unit text excluded.

| molecule | inhibition (%) |
| --- | --- |
| C=CCn1c(=N)n(CC(O)c2ccc(Cl)c(Cl)c2)c2ccccc21 (stereo unspecified) | 2.79 |
| CC(=O)c1ccccc1OCCSc1nnc(Cc2cccs2)n1C1CCCCC1 | 1.7 |
| CN(C)CCN(C)Cc1ccc(-c2ccc(NC(=O)c3ccc(Cl)cc3)cc2)cc1 | 21.2 |

Reported inhibition, molecule "CC(C)(C)OC(=O)Nc1cccc(-c2csc(NC(=N)N)n2)c1" : ____ 0.85

GET /values?readout=inhibition&item= "COc1ccc(C(=O)O)cc1OCc1ccccc1" 0.41

Given the molecule "CC(C)c1ccc(O)cc1Nc1ccnc2ccc(C(F)(F)F)cc12" , what is its reported inhibition? 1.29

Please give the measured inhibition for this molecule: Cc1cc(CNC(c2ccccc2)C2CCC2)cc(C)c1O (stereo unspecified) 14.2

Quick one: inhibition of "COc1ccc(-c2cc(-c3ccc(S(C)(=O)=O)cc3)cnc2N)cn1" ? 1.1

// lookup inhibition for "CCOc1cc(C)ccc1C1CCN(CCCCNC(=O)c2cccc(-c3ccc(C(F)(F)F)cc3)c2)CC1" 1.54

Report inhibition for "COc1ccc(-c2cnc3ccc(NCc4ccc(S(N)(=O)=O)cc4)nn23)cn1" please. 4.78

* * *

- tested.target: Hexose transporter 1 (Plasmodium falciparum)
- protocol.description: ST_JUDE_LEISH: Cytotoxicity at 2uM final concentration against transgenic Leishmania Mexicana promastigotes LmPfHT that are glucose transport deficient and complemented with the Plasmodium falciparum hexose transporter. Activity is measured by DNA content using SYBR green in vitro
- Assay type: functional
measured.endpoint: inhibition (%)
# value in %; strip the unit string

Any idea what its inhibition is? The molecule is CCOC(=O)c1c(NC(NC(=O)c2ccc(C(C)(C)C)cc2)C(Cl)(Cl)Cl)sc2c1CCCC2 (stereo unspecified) 8.72

* * *

Listed here: items and their measured inhibition.
- tested.target: Glucose transporter (Leishmania mexicana) (UniProt O61059)
- protocol.description: ST_JUDE_LEISH: Cytotoxicity at 2uM final concentration against transgenic Leishmania Mexicana promastigotes LmGT2 that are glucose transport deficient and complemented with the L. Mexicana glucose transporter 2. Activity is measured by DNA content using SYBR green in vitro
- Type: functional
Expressed in %, but write only the number.

Here is how some compounds turned out for inhibition.
| compound | units.text | test.value |
| --- | --- | --- |
| COc1cc2nc(NCC3CCN(C(=O)c4ccc(-c5ccc(C(=O)N(C)C)cc5C)cc4)CC3)nc(N)c2cc1OC | % | 7.15 |
| CCC(C)(CC)C(=O)n1ncc2c3c(N)nc(N)nc3ccc21 | % | 58.6 |

Attention now shifts to the item below.
Query: inhibition; subject: "Cc1cc(F)ccc1Nc1nc(N(C)c2ccccc2)c2cccc(O)c2n1" 1.82

* * *

- tested.target: Solute carrier family 2, facilitated glucose transporter member 1 (Homo sapiens)
- protocol.description: ST_JUDE_LEISH: Cytotoxicity at 2uM final concentration against transgenic Leishmania Mexicana promastigotes LmGLUT1 that are glucose transport deficient and complemented with the human glucose transporter GLUT1. Activity is measured by DNA content using SYBR green in vitro
- Format: functional
measured.endpoint: inhibition (%)
The response must be a number in % with no trailing unit.

These solved cases illustrate the format of a correct answer.
| compound | tested.target | measured.endpoint | test.value |
| --- | --- | --- | --- |
| Nc1cc(C(F)(F)F)ccc1Cl | Solute carrier family 2, facilitated glucose transporter member 1 (Homo sapiens) | inhibition | -1.56 |
| CC(C)CCNCc1ccc(OCc2cccc(COc3ccc(CNCCC(C)C)cc3I)c2)c(I)c1 | Solute carrier family 2, facilitated glucose transporter member 1 (Homo sapiens) | inhibition | 0.58 |
| CCC[C@@H]([C@@H](CC(C)C)C(=O)N[C@H](C(=O)Nc1nccs1)C(C)(C)SCCNC(=O)OCC)N(O)C=O | Solute carrier family 2, facilitated glucose transporter member 1 (Homo sapiens) | inhibition | 2.68 |

So what's the measured inhibition for this one? "O=C(NC1CC1)c1ccc(N2CCC(c3ccccc3)CC2)nc1" 5.99

What does the record list as inhibition for "CCN(CC)CCNC(=O)c1ccc(NC(=O)c2cc(-c3ccncc3)nc3ccccc23)cc1" ? 0.16

Any idea what inhibition was measured for "O=C(NCCN1CCCC1)N1CCCN(c2ncnc3cc(-c4ccc(F)cc4)sc23)CC1" ? -1.05

Entry under review: "CN1CCN(c2ccc(CNc3ccc4ncc(-c5ccc(OC(F)(F)F)cc5)n4n3)cc2)CC1" . Reported inhibition? -2.29

// query inhibition value for entry Cc1ccc(Nc2nccc(NCC(O)c3ccc(C(F)(F)F)cc3)n2)cc1 (stereo not given) 10

Need inhibition, item CCN1CCC(N(Cc2ccc(-c3ccc(C(F)(F)F)cc3)cc2)C(=O)Cn2c(CCc3cccc(F)c3F)cc(=O)c3ccccc32)C1 (stereo not given) 0.08

Entry "COc1ccc2c(c1)[nH]c1c(C=Cc3ccccc3)nccc12" : reported inhibition = ? 6.16
